Target: HNF4alpha8 (COS-7 nuclear extract) (Homo sapiens, UniProt P41235-5 1-452)
Sequence: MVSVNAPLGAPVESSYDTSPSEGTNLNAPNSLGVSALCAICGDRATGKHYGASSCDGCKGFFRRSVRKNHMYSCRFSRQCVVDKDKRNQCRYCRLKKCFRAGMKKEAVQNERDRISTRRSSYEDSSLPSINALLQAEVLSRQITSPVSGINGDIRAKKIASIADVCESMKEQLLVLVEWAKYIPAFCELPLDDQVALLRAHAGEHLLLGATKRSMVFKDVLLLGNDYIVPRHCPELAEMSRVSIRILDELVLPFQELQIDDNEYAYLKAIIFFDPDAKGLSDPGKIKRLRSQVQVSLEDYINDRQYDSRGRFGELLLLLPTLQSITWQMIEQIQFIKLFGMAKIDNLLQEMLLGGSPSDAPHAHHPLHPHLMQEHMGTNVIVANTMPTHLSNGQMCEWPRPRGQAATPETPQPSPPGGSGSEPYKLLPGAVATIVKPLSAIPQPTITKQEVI
Assay: protein-binding microarray; COS-7 nuclear extract on double-stranded Agilent 4x180k PBM; binding buffer, salt, pH and temperature not given in the material; high values mean tight binding
Conditions: chain copies: 2; label: 3' end of strand 1 on the slide; dsDNA, one strand shown
Whole data set: some 18,000 sequences, median “log2 normalized intensity” near 0.36, cut for the highest 2% near 7.3. What follows is part of a selection rich in the highest values, with near analogues and random picks from the rest.
Kindly state binding signal for each of the entries shown.
One number for each entry, in log2 normalized intensity.

Guide cases for binding signal, answers given:
# sequence chain, target or system, readout label, number
records = [
    ("TTAGGGAGGGGCCAGGACAAAGGTCCTGTGGCCTAGGGAGATTAGAGTATCGGTCGA", "HNF4alpha8 (COS-7 nuclear extract) (Homo sapiens, UniProt P41235-5 1-452)", "binding signal", 2.51),
    ("TTTTCAACATATACTTTGAACTTGTTTTTTGCCTAGGGAGATTAGAGTATCGGTCGA", "HNF4alpha8 (COS-7 nuclear extract) (Homo sapiens, UniProt P41235-5 1-452)", "binding signal", 2.56),
    ("ATGCTTCAAATATTTGGATAATGTGCCCTTGCCTAGGGAGATTAGAGTATCGGTCGA", "HNF4alpha8 (COS-7 nuclear extract) (Homo sapiens, UniProt P41235-5 1-452)", "binding signal", 3.92),
    ("AAGCAAACAAAACACGGACTTTGAAGCTCCGCCTAGGGAGATTAGAGTATCGGTCGA", "HNF4alpha8 (COS-7 nuclear extract) (Homo sapiens, UniProt P41235-5 1-452)", "binding signal", 3),
    ("ATCGCCCTTTGAGGAGGCCTTTCCTGACCCGCCTAGGGAGATTAGAGTATCGGTCGA", "HNF4alpha8 (COS-7 nuclear extract) (Homo sapiens, UniProt P41235-5 1-452)", "binding signal", 3.43),
]

Could you tell me binding signal for each of these sequences? They are listed below.
1. AATTTGAACCAAGATCTGTGAAAGAAAAGTGCCTAGGGAGATTAGAGTATCGGTCGA
2. TTCCAGGCTTGTACCTTGACCTTCTCTGTTGCCTAGGGAGATTAGAGTATCGGTCGA

Resp:
1. -0.147
2. 6.19
